Procedure Summary: ATG_GLI_CIS: Attagene CIS-FACTORIAL HepG2 Assay for human Zinc Finger Protein GLI1 (AID 2282945)
Assay Conditions: HepG2, Attagene cis-factorial reporter mRNA, GLI element; actives raise or lower the signal
Calls of active or inactive are those of the source. How the source made its calls: active means hit-call score of the fitted dose curve at least 0.9, where 1 is the maximum; inactive means score below 0.9.
Answer with one of the outcomes given here: class 1 for active, class 0 for inactive

Illustrative cases are given below, each with its answer.
O=C(Nc1cccc(C(F)(F)F)c1)c1cc(Br)cc(Br)c1O    class 1
CCCCCCCCCCCCCCCCCC#N    class 0
CC[C@H]1OC(=O)[C@H](C)[C@@H](O[C@H]2C[C@@](C)(OC)[C@@H](O)[C@H](C)O2)[C@H](C)[C@@H](O[C@@H]2O[C@H](C)C[C@H](N(C)C)[C@H]2O)[C@](C)(O)C[C@@H](C)C(=NOCOCCOC)[C@H](C)[C@@H](O)[C@]1(C)O    class 0

Here is another compound to look at.
QUERY: Answer briefly: the call reported for C=C[Si](OC(C)=O)(OC(C)=O)OC(C)=O in this assay.
RESULT: class 0
